Values compiled from patent US8927500B2.

- Assayed System: UniProt:O15151
- Assay Summary: Competitive fluorescence polarization assay for MDMX
- Type: binding
- Condition Notes: competitive FP assay, read-out: Ki (MDMX)
Where a SMILES comes first, the peptide text is derived from it. Bridges are numbered along the chain shown (N, C = ends). [ ]: non-standard residue; d: D form. R8 = C=CCCCCCC[C@@](C)(N)C(=O)O; Chg = N[C@H](C(=O)O)C1CCCCC1; S5 = C=CCCC[C@](C)(N)C(=O)O
Parameter Measured: Ki

* CC(=O)N[C@@H](CC(C)C)C(=O)N[C@H](C(=O)N[C@@H](Cc1ccccc1)C(=O)N[C@]1(C)CCCCCCC=CCCC[C@@](C)(C(=O)N[C@@H](CO)C(=O)N[C@@H](C)C(=O)N[C@@H](C)C(N)=O)NC(=O)[C@H](CC(C)C)NC(=O)[C@H](C)NC(=O)[C@H](C(C)C)NC(=O)[C@H](Cc2c[nH]c3ccccc23)NC(=O)[C@H](Cc2ccc(O)cc2)NC(=O)[C@H](C)NC1=O)[C@@H](C)O [compound 196] (Ac-LTF[R8]AYWVAL[S5]SAA-NH2; staple 4-11) | 10 to 100 nM

Entry under test: CC(=O)N[C@@H](Cc1ccccc1)C(=O)N[C@]1(C)CCCCCCC=CCCC[C@@](C)(C(=O)N[C@@H](CCC(N)=O)C(=O)N[C@@H](Cc2c[nH]cn2)C(=O)N[C@H](C(=O)N[C@H](CC(C)C)C(N)=O)C2CCCCC2)NC(=O)[C@H](CC(C)C)NC(=O)[C@H](CCC(N)=O)NC(=O)[C@H](C(C)C)NC(=O)[C@H](Cc2c[nH]c3ccccc23)NC(=O)[C@H](Cc2ccc(O)cc2)NC(=O)[C@H](C)NC1=O [compound 40] (Ac-F[R8]AYWVQL[S5]QH[Chg][dL]-NH2; staple 2-9) . Its Ki was 10 to 100 nM

----------
- Assayed System: MDMX (Homo sapiens, UniProt O15151)
- Sequence (O15151 1-125): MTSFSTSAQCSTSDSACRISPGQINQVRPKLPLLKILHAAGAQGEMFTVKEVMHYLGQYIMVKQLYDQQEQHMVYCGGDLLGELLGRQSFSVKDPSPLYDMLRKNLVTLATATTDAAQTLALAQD
- Assay Summary: Competitive fluorescence polarization assay for MDMX
- Format: binding
- Condition Notes: competitive FP assay, read-out: IC50 (MDMX)
pIC50: −log10 of the molar value.
Parameter Measured: pIC50

For record CC(=O)N[C@@H](CC(C)C)C(=O)N[C@H](C(=O)N[C@@H](Cc1ccc(F)c(F)c1)C(=O)N[C@]1(C)CCCCCCC=CCCC[C@@](C)(C(=O)N[C@@H](CO)C(=O)N[C@@H](C)C(=O)N[C@@H](C)C(N)=O)NC(=O)[C@H](CC(C)C)NC(=O)[C@H](CCC(N)=O)NC(=O)[C@H](C)NC(=O)[C@H](Cc2c[nH]c3ccccc23)NC(=O)[C@H](Cc2ccc(O)cc2)NC(=O)[C@H](CCC(=O)O)NC1=O)[C@@H](C)O (single isomer, unassigned) the listed pIC50 is 6.00 to 7.00

----------
- Assayed System: MDMX (Homo sapiens, UniProt O15151)
- Assay Summary: Competitive fluorescence polarization assay for MDMX
- Format: binding
- Condition Notes: competitive FP assay, read-out: Ki (MDMX)
Where a SMILES comes first, the peptide text is derived from it. Bridges are numbered along the chain shown (N, C = ends). [ ]: non-standard residue; d: D form. R8 = C=CCCCCCC[C@@](C)(N)C(=O)O; S5 = C=CCCC[C@](C)(N)C(=O)O; Nle = CCCC[C@H](N)C(=O)O
Examples of molecules with documented Ki follow.

- CC[C@H](C)[C@H](NC(=O)[C@H](Cc1c[nH]cn1)NC(=O)[C@H](C)NC(=O)[C@]1(C)CCCC=CCCCCCC[C@@](C)(NC(=O)[C@H](Cc2ccccc2)NC(=O)[C@@H](NC(=O)[C@H](CC(C)C)NC(C)=O)[C@@H](C)O)C(=O)N[C@@H](CCC(=O)O)C(=O)N[C@@H](Cc2c[nH]cn2)C(=O)N[C@@H](Cc2c[nH]c3ccccc23)C(=O)N[C@@H](C)C(=O)N[C@@H](CCC(N)=O)C(=O)N[C@@H](CC(C)C)C(=O)N1)C(=O)N[C@H](C)C(N)=O (single isomer, unassigned) [compound 206]: 0.01 to 0.1 µM

Reported Ki of CCCC[C@H](NC(=O)[C@H](C)NC(=O)[C@H](C)NC(=O)[C@]1(C)CCCC=CCCCCCC[C@@](C)(NC(=O)[C@H](Cc2ccccc2)NC(=O)[C@@H](NC(=O)[C@H](CC(C)C)NC(C)=O)[C@@H](C)O)C(=O)N[C@@H](CCC(=O)O)C(=O)N[C@@H](Cc2ccc(O)cc2)C(=O)N[C@@H](Cc2c[nH]c3ccccc23)C(=O)N[C@@H](C)C(=O)N[C@@H](CCC(N)=O)C(=O)N[C@@H](CC(C)C)C(=O)N1)C(=O)N[C@@H](C)C(=O)N[C@@H](C)C(N)=O [compound 377] (Ac-LTF[R8]EYWAQL[S5]AA[Nle]AA-NH2; staple 4-11) : 0.01 to 0.1 µM

----------
- Tested on: SJSA-1 cells
- Assay Summary: Cell lysis by peptidomimetic macrocycles (LDH release)
- Type: cell-based
- Condition Notes: 6.25 uM, 1 h at 37C
Measured 6.25 uM % Lysed cells (1 h LDH) of individual entries
Number in %, nothing else.

• CC(=O)N[C@@H](CC(C)C)C(=O)N[C@H](C(=O)N[C@@H](Cc1ccccc1)C(=O)N[C@]1(C)CCCCCCC=CCCC[C@@](C)(C(=O)N[C@@H](CO)C(=O)NC(C)(C)C(=O)N[C@@H](C)C(=O)N[C@@H](C)C(N)=O)NC(=O)[C@H](CC(C)C)NC(=O)[C@H](CCC(N)=O)NC(=O)[C@H](C)NC(=O)[C@H](Cc2c[nH]c3ccccc23)NC(=O)[C@H](Cc2ccc(O)cc2)NC(=O)[C@H](C)NC1=O)[C@@H](C)O (single isomer, unassigned) [compound 26] = 2

The molecule identified as CC(=O)N[C@@H](CC(C)C)C(=O)N[C@H](C(=O)N[C@@H](Cc1ccccc1)C(=O)N[C@]1(C)CCCCCCC=CCCC[C@@](C)(C(=O)N[C@@H](C)C(=O)N[C@H](C(=O)NCC(N)=O)C(C)C)NC(=O)[C@H](CC(C)C)NC(=O)[C@H](CCC(N)=O)NC(=O)[C@H](C)NC(=O)[C@H](Cc2c[nH]c3ccccc23)NC(=O)[C@H](Cc2ccc(O)cc2)NC(=O)[C@H](C)NC1=O)[C@@H](C)O (single isomer, unassigned) [compound 108] registered its 6.25 uM % Lysed cells (1 h LDH) at 0

----------
- Assayed System: MDM2 (Homo sapiens, UniProt Q00987)
- Sequence (Q00987 1-125): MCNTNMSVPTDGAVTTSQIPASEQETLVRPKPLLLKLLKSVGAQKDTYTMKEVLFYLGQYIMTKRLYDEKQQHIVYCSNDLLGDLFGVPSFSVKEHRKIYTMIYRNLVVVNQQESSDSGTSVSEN
- Assay Summary: Competitive fluorescence polarization assay for MDM2
- Type: binding
- Condition Notes: IC50 (MDM2), competitive FP assay, MDM2
Parameter Measured: IC50

* CC(=O)N[C@@H](CC(C)C)C(=O)N[C@H](C(=O)N[C@@H](Cc1ccccc1)C(=O)N[C@]1(C)CCCCCCC=CCCC[C@@](C)(C(=O)N[C@@H](C)C(=O)N[C@@H](C)C(=O)N[C@@H](C)C(=O)N[C@@H](C)C(=O)N[C@@H](C)C(=O)N[C@@H](C)C(=O)N[C@H](C)C(N)=O)NC(=O)[C@H](CC(C)C)NC(=O)[C@H](CCC(N)=O)NC(=O)[C@H](C)NC(=O)[C@H](Cc2c[nH]c3ccccc23)NC(=O)[C@H](Cc2ccc(O)cc2)NC(=O)[C@H](CCC(=O)O)NC1=O)[C@@H](C)O (single isomer, unassigned) [compound 343] | 10 to 100 nM

Moving on to another compound below.
CC(C)C[C@H](NC(=O)CN(C)C)C(=O)N[C@H](C(=O)N[C@@H](Cc1ccccc1)C(=O)N[C@]1(C)CCCCCCC=CCCC[C@@](C)(C(=O)N[C@@H](C)C(=O)N[C@@H](C)C(=O)N[C@@H](C)C(=O)N[C@@H](C)C(=O)N[C@@H](C)C(=O)N[C@H](C)C(N)=O)NC(=O)[C@H](CC(C)C)NC(=O)[C@H](CCC(N)=O)NC(=O)[C@H](C)NC(=O)[C@H](Cc2c[nH]c3ccccc23)NC(=O)[C@H](Cc2ccc(O)cc2)NC(=O)[C@H](CCC(=O)O)NC1=O)[C@@H](C)O (single isomer, unassigned) [compound 439] on MDM2 (Homo sapiens, UniProt Q00987) gives IC50 = < 10 nM

----------
- Assayed System: MDM2 (Homo sapiens, UniProt Q00987)
- Assay Summary: Competitive fluorescence polarization assay for MDM2
- Type: binding
- Condition Notes: competitive FP assay, MDM2; read-out: IC50 (MDM2)
pIC50: −log10 of the molar value. Where a SMILES comes first, the peptide text is derived from it. Bridges are numbered along the chain shown (N, C = ends). [ ]: non-standard residue; d: D form. R8 = C=CCCCCCC[C@@](C)(N)C(=O)O; S5 = C=CCCC[C@](C)(N)C(=O)O
Parameter Measured: pIC50

pIC50 recorded for this molecule, CC[C@H](C)[C@H](NC(=O)[C@H](C)NC(=O)[C@H](CO)NC(=O)[C@]1(C)CCCC=CCCCCCC[C@@](C)(NC(=O)[C@H](Cc2ccccc2)NC(=O)[C@@H](NC(=O)[C@H](CC(C)C)NC(C)=O)[C@@H](C)O)C(=O)N[C@@H](C)C(=O)N[C@@H](Cc2ccc(O)cc2)C(=O)N[C@@H](Cc2c[nH]c3ccccc23)C(=O)N[C@@H](C)C(=O)N[C@@H](CCC(N)=O)C(=O)N[C@@H](CC(C)C)C(=O)N1)C(N)=O [compound 8] (Ac-LTF[R8]AYWAQL[S5]SAI-NH2; staple 4-11) , is 6.00 to 7.00

Measured pIC50, CC(=O)N[C@@H](CC(C)C)C(=O)N[C@H](C(=O)N[C@@H](Cc1ccccc1)C(=O)N[C@]1(C)CCCCCCCCCCC[C@@](C)(C(=O)N[C@@H](CO)C(=O)N[C@@H](C)C(=O)N[C@@H](C)C(N)=O)NC(=O)[C@H](CC2CCC2)NC(=O)[C@H](CCC(N)=O)NC(=O)[C@H](C)NC(=O)[C@H](Cc2c[nH]c3ccccc23)NC(=O)[C@H](Cc2ccc(O)cc2)NC(=O)[C@H](CCC(=O)O)NC1=O)[C@@H](C)O : 7.00 to 8.00
